target: Aspartate--tRNA(Asp/Asn) ligase (Mycobacterium tuberculosis (strain ATCC 25618 / H37Rv)) (UniProt P9WFW3); assay: Assay for Asp RNA synthetase-1 from Mycobacterium tuberculosis; format: functional; set-up: scale not given: in the data most compounds retested in dose-response had high values; details: 30 µM
measured.parameter: Percent Effect (%)

> print(dat)
                                    molecule  readout.units  data.value
 1       Cc1ccc(CN2CCCn3nnc(COCC4CC4)c3C2)s1              %       -4.16
 2  Cn1cc(C2CCCN2C(=O)CCCOc2ccc(F)cc2F)cn1 (stereo not given)              %       -2.66
 3  CCC(CC)c1cc(CNC(=O)N2CCOCC2CC)on1 (stereo not given)              %       -2.19
 4  COc1ccc(C(=O)N2CCC(Nc3ccc(C)nn3)CC2)c(F)c1              %        4.79
 5  Cc1nc(C)n(CC2CCCN(c3ncnc4[nH]ccc34)C2)n1 (stereo not given)              %       -1.82
 6  Cc1cc(C)n(CC2CCCN2CCCS(N)(=O)=O)n1 (stereo not given)              %      -0.589
 7  O=C(CSc1ccc2c(c1)OCCO2)NS(=O)(=O)C1CCCCC1              %        1.67
 8  CN(C)C(CNS(=O)(=O)c1ccc(F)cc1F)c1cccn1C (stereo not given)              %       0.719
 9          O=C(CN1CCc2c(ncn2C2CC2)C1)NC1CC1              %     -0.0146
10  COc1cccc(C(=O)N2CCCC(c3cc(C)[nH]n3)C2)c1OC (stereo not given)              %       -1.08
11             Cc1ccc(C2(CN3CCCC3)CCNCC2)nc1              %       -4.12
12   NC(=O)CN1CCCN(C(=O)Cc2ccc(F)c(Br)c2)CC1              %      -0.338
13  Cc1cnn(CC2CN(c3cnc4ccccc4n3)CCO2)c1 (stereo not given)              %       -11.1
14        COc1cc(C)nc(N2CCN(Cc3nccn3C)CC2)n1              %       -1.39
15  CC(=O)N(Cc1noc(C)n1)C1CCN(Cc2cc(C)on2)C1 (stereo not given)              %        4.07
16  CCCC(C)C(=O)NCc1cn2cc(Br)ccc2n1 (stereo not given)              %        1.41
17    O=C(Cn1cc(-c2ccccc2)ncc1=O)Nc1nnc[nH]1              %      -0.342
18        O=C(CC1CC1)N1CCn2cc(Cn3cncn3)nc2C1              %         3.1
19  CCO[C@@H]1CCN(C(=O)c2ccc[nH]2)[C@@H]1Cc1cnn(C)c1              %       -1.78
20     O=C(NCCCNC(=O)c1cccc(O)c1)NCc1ccccc1F              %       -5.63
21      CN(C)CCN1CCCC12CCN(C(=O)c1cccnc1)CC2              %        1.98
22  Fc1cccc(N2CCCC3(CN(Cc4ccncc4)CCO3)C2)c1 (stereo not given)              %        5.63
23      CCn1cc(CN2CCCN(C(=O)Cc3cccs3)CC2)cn1              %        -2.8
24    Cc1csc2c(N3CCC(NCCCc4ccncc4)CC3)ncnc12              %         8.8
25  Cc1cc(C)c(CNC(=O)NCCOc2ccc3c(c2)CCC3)c(=O)[nH]1              %       -2.17

* * *

Percent Effect reference
biological target: Aspartate--tRNA(Asp/Asn) ligase (Mycobacterium tuberculosis (strain ATCC 25618 / H37Rv)); test: Assay for Asp RNA synthetase-1 from Mycobacterium tuberculosis; format: functional; set-up: scale not given: in the data most compounds retested in dose-response had high values; details: 30 µM
measured.parameter: Percent Effect (%)

> print(dat)
                                    compound  readout.units  data.value
 1  CCNc1cc2c(nn1)CCN(C(=O)c1ccnc(N(C)C)c1)C2              %       0.611
 2  CCCc1nc(CN2CCCC(Cn3cncn3)C2)no1 (configuration not stated)              %       -3.39
 3  O=C([C@@H]1CC[C@@H]2[C@@H](CCN2Cc2ccoc2)O1)N1CCCC1              %       0.466
 4  O=C(CN(Cc1cccnc1)CC1CCCO1)Nc1ccc(F)cc1 (configuration not stated)              %        5.92
 5  O=C(CCc1ccc(=O)[nH]n1)N1CCCC(COc2ccc(F)cc2)C1 (configuration not stated)              %        3.84
 6  CC(=O)N1CCCn2nc(CNS(=O)(=O)c3cc(C)cs3)cc2C1              %        1.67
 7  Cc1ccc2c(c1)OCCCC2NCc1nnc2n1CCCCC2 (configuration not stated)              %       -4.58
 8  CNS(=O)(=O)c1cccc(C(C)NCc2nccn2C(C)C)c1 (configuration not stated)              %       -2.07
 9  CN(CC(=O)N1CCCC1Cn1cccn1)c1cnccn1 (configuration not stated)              %       -1.26
10  CC(NC(=O)Nc1cccnc1N1CCCC1)c1nncn1C (configuration not stated)              %       -2.86
11  CCCc1noc(CN2CCCC2c2c(C)nn(C)c2OC)n1 (configuration not stated)              %       -5.33
12  O=C(Nc1cccnc1)[C@H]1COC[C@H]2CN(C3CCCC3)C[C@H]21              %        5.33

* * *

Percent Effect reference
Molecular target: Aspartate--tRNA(Asp/Asn) ligase (Mycobacterium tuberculosis (strain ATCC 25618 / H37Rv))
Sequence (whole entry): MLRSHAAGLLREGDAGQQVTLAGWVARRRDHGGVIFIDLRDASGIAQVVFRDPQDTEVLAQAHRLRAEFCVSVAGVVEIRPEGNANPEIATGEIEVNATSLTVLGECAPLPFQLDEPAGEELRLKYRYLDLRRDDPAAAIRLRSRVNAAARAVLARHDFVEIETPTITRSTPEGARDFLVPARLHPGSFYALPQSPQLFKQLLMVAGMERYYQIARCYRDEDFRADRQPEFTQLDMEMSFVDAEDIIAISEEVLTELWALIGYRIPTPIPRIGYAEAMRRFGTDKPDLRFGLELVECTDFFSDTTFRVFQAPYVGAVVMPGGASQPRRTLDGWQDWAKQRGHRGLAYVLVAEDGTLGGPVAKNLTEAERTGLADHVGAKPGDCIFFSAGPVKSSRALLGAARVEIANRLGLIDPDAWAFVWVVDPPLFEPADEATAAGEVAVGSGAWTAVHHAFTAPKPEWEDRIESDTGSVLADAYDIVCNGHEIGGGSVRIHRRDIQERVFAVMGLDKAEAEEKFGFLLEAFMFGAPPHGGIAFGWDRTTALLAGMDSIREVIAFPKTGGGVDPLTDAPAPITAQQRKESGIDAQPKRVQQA
Experiment: Assay for Asp RNA synthetase-1 from Mycobacterium tuberculosis
Type: functional
Parameters: scale not given: in the data most compounds retested in dose-response had high values
Conditions: 30 µM
measured.parameter: Percent Effect (%)

> print(dat)
                                   compound  measured.parameter  readout.units  data.value
1  CCOc1cccc(NS(=O)(=O)c2cc(C)c(C(=O)O)s2)c1      Percent Effect              %        1.62
2  Cc1cc(C(=O)N2CCC(c3nccn3CCCN(C)C)CC2)no1      Percent Effect              %         7.7
3  Cn1ccnc1CC1CCCN(C(=O)Nc2cccn(C)c2=O)C1 (stereo unspecified)      Percent Effect              %        2.75
4    Cn1c(Cn2cccn2)nnc1C1CCN(Cc2cccnc2N)CC1      Percent Effect              %       -5.74
5   Cn1c(C2CC2)nc2c1CCN(CCOc1ccc(C#N)cc1)C2      Percent Effect              %        3.25
6  COCC1CN(Cc2cc(C)on2)Cc2cn(C)nc21 (stereo unspecified)      Percent Effect              %        1.83
